target_desc: Aβ40 (Homo sapiens)
Construct: Compounds Showing Activity Observed in a ThT Functional Aβ 1-40 Aggregation Assay
protocol_notes: ThT functional Aβ 1-40 aggregation assay
Type: biochemical
stated_conditions: 20 μM Aβ, 20 mM Tris pH 7.4, 150 mM NaCl, 1% DMSO, 37° C.
readout_kind: IC50 (µM)

compound: CCN(CC)C(=O)c1ccc(N2CCN(C(=O)c3ccccc3)CC2)cc1NCc1ccccc1
IC50, µM: 361

compound: CN(C)c1ccc(N2CCN(C(=O)c3ccccc3)CC2)cc1N(C)c1ccccc1
IC50, µM: 148

I = O=C(c1ccccc1)N1CCN(c2cccc([N+](=O)[O-])c2)CC1 [drawing 132]
II = CN(C)c1cc([N+](=O)[O-])ccc1N1CCN(C(=O)c2ccccc2)CC1 [drawing 150]
III = O=[N+]([O-])c1ccccc1NCc1ccccc1
Please list these in order of increasing IC50. Thank you! List the labels according to the requested ordering. II, III, I
(II: 27 µM, III: 63 µM, I: 196 µM)

* * *

target_desc: Aβ40 (Homo sapiens)
Construct: Compounds Showing Activity Observed in a ThT Functional Aβ 1-40 Aggregation Assay
protocol_notes: ThT functional Aβ 1-40 aggregation assay
Format: biochemical
stated_conditions: potency with respect to the compound of Example 7, 1=potency of that compound
readout_kind: Ratio

Below are worked cases with known answers.
compound: CN(C)c1ccc(N2CCN(C(=O)c3ccccc3)CC2)cc1Nc1ccccc1 [drawing 157]
target_desc: Aβ40 (Homo sapiens)
assay_value: 11
--
compound: COc1ccc(N2CCN(C(=O)c3ccccc3)CC2)cc1Nc1ccccc1
target_desc: Aβ40 (Homo sapiens)
assay_value: 0.04
--
compound: O=C(O)c1cccc(-c2ccc([N+](=O)[O-])c(NCc3ccccc3)c2)c1 [drawing 139]
target_desc: Aβ40 (Homo sapiens)
assay_value: 2.85

1 = O=C(O)C1CCCN(c2ccc([N+](=O)[O-])c(NCc3ccccc3)c2)C1 (stereo not drawn)
2 = O=C(NCc1ccccc1)c1ccccc1-c1ccc([N+](=O)[O-])c(NCc2ccccc2)c1
3 = CNc1ccc(N2CCN(C(=O)c3ccccc3)CC2)cc1N(C)c1ccccc1
4 = NC(=O)c1ccc(N2CCN(C(=O)c3ccccc3)CC2)cc1NCc1ccccc1
Given 4 compounds, produce a descending ranking by Ratio. Response field: labels, in requested order. 3, 1, 4, 2

P = O=[N+]([O-])c1ccc(N2CCOCC2)cc1Nc1ccccc1
Q = O=C(c1ccccc1)N1CCN(c2ccc([N+](=O)[O-])c(Nc3ccccc3)c2)CC1
I would appreciate it if you could say which entry, P or Q , has the lower Ratio value. Write the label of whichever entry you select. P
(P: 0.40, Q: 1)

* * *

target_desc: Aβ40 (Homo sapiens, UniProt P05067)
Construct: Compounds Showing Activity Observed in a ThT Functional Aβ 1-40 Aggregation Assay
Sequence (P05067 672-711 limits assumed): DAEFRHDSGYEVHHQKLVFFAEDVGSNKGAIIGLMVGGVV
protocol_notes: ThT functional Aβ 1-40 aggregation assay
Assay type: biochemical
stated_conditions: 20 μM Aβ, 20 mM Tris pH 7.4, 150 mM NaCl, 1% DMSO, 37° C.
readout_kind: IC50 (µM)

compound: Nc1ccc(-c2cccc(C(=O)O)c2)cc1Nc1ccccc1
IC50, µM: 26.6

A = CNc1ccc(N2CCN(C(=O)c3ccccc3)CC2)cc1Nc1ccccc1
B = O=C(c1nnc[nH]1)N1CCN(c2ccc([N+](=O)[O-])c(NCc3ccc(Cl)cc3)c2)CC1
C = O=C(NCc1ccccc1)C1CCN(c2ccc([N+](=O)[O-])c(NCc3ccccc3)c2)CC1
Order the records, beginning with the lowest IC50 and ending with the highest. Your task in answering is to list the labels in the requested order. B, A, C
